- assay.summary: Distribution coefficient, log D at pH 7.4
- Format: physicochemical
- recorded.conditions: octanol/water
Criterion: logD meeting or surpassing 0.1. Met: true. Not met: false.

| chem.smiles | class |
| --- | --- |
| Fc1cccn2ccnc12 | true |
| CC(C)(O)c1ccn2ccnc2c1 | true |
| CC(C)(O)c1ccn2ccnc2c1F | true |
| c1cnc2nccn2c1 | false |
| c1ccn2ccnc2c1 | true |

====

Entries and their measured pKa follow.
- assay.summary: Dissociation constant, pKa of the compound
- Assay type: physicochemical
result.type: pKa

| chem.smiles | value.reported |
| --- | --- |
| c1cnc2nccn2c1 | 4.9 |
| CC(C)(O)c1ccn2ccnc2c1F | 5.4 |
| Fc1cccn2ccnc12 | 4.9 |
| CC(C)(O)c1ccn2ccnc2n1 | 5.4 |
| c1ccn2ccnc2c1 | 6.9 |
| CC(C)(O)c1ccn2ccnc2c1 | 7.2 |
